Below, each of the compounds is paired with its reported O2 permeability value.

Compound	Observed
*OC(=O)Oc1c(C)cc(C(C)(C)c2cc(C)c(*)c(C)c2)cc1C (repeat unit)	5.54 Barrer

*C(=C(*)c1ccc2c(c1)C(C)(C)c1ccccc1-2)c1ccc(F)c(F)c1 (repeat unit) has a reported O2 permeability of 6600 Barrer

*c1c(C)cc2c(c1C)C1c3ccccc3C2c2cc(C)c(-n3c(=O)c4cc5oc6cc7c(cc6oc5cc4c3=O)C3(C(C)C)c4ccccc4C7(C(C)C)c4cc5oc6cc7c(=O)n(*)c(=O)c7cc6oc5cc43)c(C)c21 (repeat unit) has a reported O2 permeability of 1150 Barrer

*c1ccc(-c2ccc(-c3ccc(C(*)(c4ccccc4)C(F)(F)F)cc3)cc2)cc1 (repeat unit) has a reported O2 permeability of 32 Barrer

*C=C(*)c1cccc(O[Si](C)(C)C(C)(C)C)c1 (repeat unit) has a reported O2 permeability of 17 Barrer

*c1ccc(Oc2ccc(C(c3ccccc3)(c3ccccc3)c3ccc(Oc4ccc(*)cc4)cc3)cc2)cc1 (repeat unit) has a reported O2 permeability of 2.26 Barrer

*CC(*)OC(=O)c1ccc(C)cc1 (repeat unit) has a reported O2 permeability of 1.72 Barrer

*CC(*)c1ccc(O)cc1 (repeat unit) has a reported O2 permeability of 0.12 Barrer

*c1c(C)c2c(c(N3C(=O)c4ccc(Oc5ccc6c(c5)C(=O)N(*)C6=O)cc4C3=O)c1C)C(C)(C)CC2 (repeat unit) has a reported O2 permeability of 43.9 Barrer

*C(=C(*)c1ccc2c(c1)C(C)(C)c1ccccc1-2)c1cccc(F)c1 (repeat unit) has a reported O2 permeability of 5900 Barrer
